B1: Retinoic acid receptor beta, residues 85 to 161; numbered along this chain, P10826 (parent)
chain: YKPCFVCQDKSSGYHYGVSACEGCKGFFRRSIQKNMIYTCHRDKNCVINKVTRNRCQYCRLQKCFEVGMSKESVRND

Variants of: B1
assayInfo: abundance fitness (aPCA) (normalised: wild type 0, dead -1); higher = more abundant; growth selection in yeast, the domain comes from the species named
assayConditions: Homo sapiens
outcomeMeasure: abundance fitness
Format: numeric value only, no unit, no commentary.

Quickly give me recorded abundance fitness for C40N
-0.999

Next:
Could you please provide reported abundance fitness for Q33K ? Thanks!
-0.016

Give the reported value of abundance fitness for this record: S12R
-0.32

Output measured abundance fitness for this item: S11L
-0.263

Look up and report measured abundance fitness for this entry: I32P
-1.09

State its abundance fitness for this variant: R30G
-0.702

State its abundance fitness for this variant: H15K
-0.276

Find the measured abundance fitness of F28M and report it.
-0.47

Supply measured abundance fitness of Y38M in your reply.
-0.466

Annotate the variant T39H with its measured abundance fitness.
0.029

State, in one line, measured abundance fitness of I32D
-0.312

Entry F5D needs its abundance fitness filled in; supply it.
-0.314

Give the reported abundance fitness for this variant. N45C
0.02
